Values from ChEMBL document CHEMBL1201862

# System: U-251
# test-details: NCI tumour cell line growth inhibition, 48 h
Activity calls are given as the source filed them. Cut-off read from the data, not from the text of the source: active = GI50 up to about 1.1 µM and inactive = higher.
Labels: YES = active, NO = inactive

Cc1cccc(NC(=O)/C=C/c2ccc([N+](=O)[O-])cc2)c1 :: NO
CC(C)(C)[Si](C)(C)OC1C(=O)C[C@H]2CCCC[C@@H]12 (some centres undefined) :: NO
O=c1nc(-c2ccccc2)c2c3c(cccn13)CCC2 :: NO
CC(=O)O[C@@H]1C[C@@]2(C)[C@@H]3CC=C4[C@@H](C[C@H](O)C(=O)C4(C)C)[C@]3(C)C(=O)C[C@]2(C)[C@H]1[C@@](C)(O)C(=O)/C=C/C(C)(C)OC(C)=O :: YES
